Source of measurements: paper PMC12136788

Biological target: T1, UNK ZnF1-3 (human, UniProt Q9C0B0 31-174)
T1 sequence: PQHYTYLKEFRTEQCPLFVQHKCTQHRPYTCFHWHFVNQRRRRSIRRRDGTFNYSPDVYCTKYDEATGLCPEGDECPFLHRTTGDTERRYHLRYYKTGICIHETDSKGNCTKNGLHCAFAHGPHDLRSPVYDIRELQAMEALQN
Assay: nsRBNS (natural sequence RNA bind-n-seq); RBNS binding buffer (assumed for nsRBNS): 25 mM Tris pH 7.5, 150 mM KCl, 3 mM MgCl2, 0.01% Triton X-100, 500 ug/ml BSA, 20 U/ml SUPERase-In, 4 C; UNK is unkempt and MSI1 is Musashi-1; names of the RNAs are library labels; protein concentration not given here; high values mean tight binding
Over roughly 24,000 sequences, “enrichment r” has its median near 0.99; the highest 2% begin near 3.7. A selection follows.
binding signal values by entry
Measurement name: binding signal (enrichment R)

Binder	Measurement name	Output unit	Quantitative result
chr4:56883625:56883626:-_ENSMUSG00000055296_ENSMUST00000068792|mus_mus|FALSE|FALSE (ssRNA) RNA: GGGAGUUCUACAGUCCGACGAUCUAUAGGCGUGCGCCACCACGCCCGGGUUUAAAAUGUGUAGACCAGGCUGGCCUCGAACUCGCGAUCCUCCUGCUUCUGCCUCCUUCAGCAAAUCCUACUGGCGUGCGCCACCACAACCAGCAACAGAGGAUUGAGCAUCA	binding signal	enrichment R	0.972
chr11:111909998:111909999:+_ENSG00000150768_ENST00000533297|hu_hu|FALSE|FALSE (ssRNA) RNA: GGGAGUUCUACAGUCCGACGAUCACCCUUCCCUUUGGUCCAGCAGGAGUAGCUGGGCAGGGUGCUGAAGGUGUAGGAGCUAAAGGCUGGGGAGUUGGAGGAACAGCGGCCACCGGGGGUGGGGUAGGUGGUGGCACUUGUGGUCAACAGAGGAUUGAGCAUCA	binding signal	enrichment R	1.76
chr1:213302989:213302990:+_ENSG00000136643_ENST00000366960|hu_hu|motif|central (ssRNA) RNA: GGGAGUUCUACAGUCCGACGAUCAGAAGCAACAGCCCCUAGUGCUGAAGAAUCCGAAGAAAGAUUGAGACCAAAAGUUCGGAUGGGAGAAUUUUGAUUGGAAGCCAUUCCAUCAUCUAACUCAGCAAGAGAAUCCACAUCAACCAACAGAGGAUUGAGCAUCA	binding signal	enrichment R	2.3
chr1:163112212:163112213:-_ENSG00000143248_ENST00000313961|hu_hu|hu_hu_hu_mus_False|1_58 (ssRNA) RNA: GGGAGUUCUACAGUCCGACGAUCUUUUAUUAUCAGUAAGAGUGAGUUACAUACUAGGCAAAGUAUUGGAUACAAUAUUCUAAAGAUAAACACUAUUGGUCCAGAAUUUAAAACUUUAUGAGCGAAGUGCUGGCACAGGAUUUACAACAGAGGAUUGAGCAUCA	binding signal	enrichment R	1.29
chr9:100389865:100389866:-_ENSG00000136925_ENST00000341170|hu_mus|FALSE|FALSE (ssRNA) RNA: GGGAGUUCUACAGUCCGACGAUCUAUCAGUGGGACAGGUUCCUUGCAGACAAGUAUCUUCCGCAAACCCUAGGCCUUUCCUGGGUCUCCCUUCACCAACUUGGCGCUGCUCCCCGCCCUCGAGCCCACGCCCCCCGGCGCGCGCAACAGAGGAUUGAGCAUCA	binding signal	enrichment R	1.19
chr9:95013113:95013114:-_ENSG00000196305_ENST00000443024|hu_hu|hu_hu_hu_mus_False|78_78 (ssRNA) RNA: GGGAGUUCUACAGUCCGACGAUCCUCAGUCAGAAAGGGCGUGUAAGGGGCCAUCAGUCUGCAAAGAGAAAGCAGGACACUGAACAGUGUCUCCAGAGCCAUGACACAGUCUUCCACCCCACUCUCACCCUUUAACCUCCUCCUCAACAGAGGAUUGAGCAUCA	binding signal	enrichment R	1.44
chr10:93459826:93459827:-_ENSMUSG00000036099_ENSMUST00000119818|mus_mus|motif|central (ssRNA) RNA: GGGAGUUCUACAGUCCGACGAUCUCCCCACACCAGCCAGGAGGACACAAUCCAGCACGUGGGAAACAUGAUGAGCAAACGGAUGAAGGCAAACAGCAGCGAGACAUCCCAAGUGUUCGGGGUUGCCAGGGAGCAGAGCGUUGGCAACAGAGGAUUGAGCAUCA	binding signal	enrichment R	2.05
chrX:20185780:20185781:-_ENSG00000177189_ENST00000379565|hu_mus|motif|central (ssRNA) RNA: GGGAGUUCUACAGUCCGACGAUCUUUGGUUAUAGUAAACAGGACAGCGCUGGCCUCUCGCUCUGAGAAAAACUUCUGUCGGAGAAUCUUAUCCAGCAAUUCACCUCCUUUCAUAAGUUCUGUUACUACAUACACAUAUUUUCCCAACAGAGGAUUGAGCAUCA	binding signal	enrichment R	0.794
chr7:75932113:75932114:+_ENSG00000106211_ENST00000248553|hu_hu|hu_hu_hu_mus_False|28_98 (ssRNA) RNA: GGGAGUUCUACAGUCCGACGAUCCUGCGACCACUCAUCCGGCAGCCGGGGCACCCCGAAAGCUUGAUCGAAGAGGCGGCUGUGUGCAGGGUACCAGUCCCGGAAUGCCCAGCUGGGCGGGCUCCGCAGCAGCGAGAAGGGCACCAACAGAGGAUUGAGCAUCA	binding signal	enrichment R	0.901
chr16:45382771:45382772:-_ENSMUSG00000022661_ENSMUST00000163230|mus_mus|mus_mus_mus_hu_True|48_88 (ssRNA) RNA: GGGAGUUCUACAGUCCGACGAUCCUGGGUCAUGUUAUAAGACAAAUGGAUAGGGAGGGCAUGCUUCUCAAAAAAUGUGAGCUAUUGACUAAGACUAACAAUAUUUAUCUAGCUAUAAAAAUAAGUUAAAUGAAUAAGUUAAGACAACAGAGGAUUGAGCAUCA	binding signal	enrichment R	2.26
chr11:64571133:64571134:-_ENSG00000133895_ENST00000312049|hu_hu|motif|central (ssRNA) RNA: GGGAGUUCUACAGUCCGACGAUCCUGAAAAAUAAAUCUAUGUACAAAACAGGAAGAGAUCAGGCUCUUGUCACCCACUCCGGACCCUCUGCAGAUUUCCUCCGGGAUGCUCCGAGAUGGGCUGGACCUCUGGGAGGUUCCCAGCAACAGAGGAUUGAGCAUCA	binding signal	enrichment R	0.877
chr12:39756943:39756944:-_ENSG00000139116_ENST00000544797|hu_mus|hu_hu_hu_mus_False|28_38 (ssRNA) RNA: GGGAGUUCUACAGUCCGACGAUCGGUUUGGCUGUUACCCCCAAGGGAAUCCUGCAAGAGUCUUGUCAGCUUAGAGUCUCUGUAAGGGACAUGGGUGGCCCUCUUGCUCUUGUCUCCCAAGGCGCUGAUUACAUUCCCAAGAGCCAACAGAGGAUUGAGCAUCA	binding signal	enrichment R	0.802
87970796_87970916_7552_CDS_ENSG00000188994_ENST00000369577|human|control|control (ssRNA) RNA: GGGAGUUCUACAGUCCGACGAUCUUCUGACUGGCAGAGGUUAUCUUCCUGAAAAUCAUUACUUACAUUUGAAGAAGUAUUAGCUUGGGUCUCUACACUUGUGCUAUCUUCAUUUAUUAAUUUUGUAAUAAACAAUUCUGUUAGCAACAGAGGAUUGAGCAUCA	binding signal	enrichment R	0.862
